Record: AC50 reported on UniProtKB P35439.

[in] Request the reported AC50 associated with Nc1ncn([C@H]2C[C@H](O)[C@@H](CO)O2)c(=O)n1
[out] > 30 µM

[in] Repeat with O=C1CN(/N=C/c2ccc(-c3ccc([N+](=O)[O-])cc3)o2)C(O)=N1
[out] > 10 µM

[in] Try this molecule too: CC(C)c1nc(N(C)S(C)(=O)=O)nc(-c2ccc(F)cc2)c1/C=C/[C@@H](O)C[C@@H](O)CC(=O)O
[out] > 30 µM

[in] Consider next the molecule COc1ccccc1OCCNCC(O)COc1cccc2[nH]c3ccccc3c12 (centres undefined) in the same way.
[out] 5.09 µM

[in] Ok, now NC1CCN(c2nc3c(cc2F)c(=O)c(C(=O)O)cn3-c2ccc(F)cc2F)C1 (centres undefined)
[out] > 30 µM

[in] Again, but for CNC1=Nc2ccc(Cl)cc2C(c2ccccc2)=[N+]([O-])C1 [CHLORDIAZEPOXIDE]
[out] > 10 µM

[in] Same read-out for Cc1onc(-c2ccccc2)c1-c1ccc(S(N)(=O)=O)cc1 ?
[out] > 10 µM

[in] Next molecule: CC(=O)SC[C@@H](C)C(=O)N1CCC[C@H]1C(=O)N[C@@H](Cc1ccccc1)C(=O)O
[out] > 30 µM

[in] How about this molecule: CC(C(=O)O)c1ccc2c(c1)[nH]c1ccc(Cl)cc12 (centres undefined)
[out] > 10 µM

[in] Record: CCOC(=O)C1=C(C)NC(C)=C(C(=O)OC)C1c1cccc([N+](=O)[O-])c1 (centres undefined)
[out] > 10 µM

[in] Query O=C1CN=C(c2ccccn2)c2cc(Br)ccc2N1 next
[out] > 10 µM

[in] CCCN(CCC)C(=O)Cc1c(-c2ccc(Cl)cc2)nc2ccc(Cl)cn12 ?
[out] > 30 µM

[in] // repeat for CN(CC1(C)CCCO1)S(=O)(=O)c1ccc(Cl)c(S(N)(=O)=O)c1 (centres undefined) [MEFRUSIDE] and report
[out] > 30 µM

[in] Same question, Cn1c(=O)cc(N2CCC[C@@H](N)C2)n(Cc2ccccc2C#N)c1=O this time
[out] > 10 µM

[in] Follow-up entry: CN1C(C(=O)Nc2ccccn2)=C(O)c2ccccc2S1(=O)=O
[out] > 10 µM

[in] And then C[C@H]1c2cccc(O)c2C(=O)C2=C(O)[C@]3(O)C(=O)C(C(N)=O)=C(O)[C@@H](N(C)C)[C@@H]3[C@@H](O)[C@@H]21 , what is it?
[out] > 10 µM

[in] Now the same for C[C@@H](NCCCc1cccc(C(F)(F)F)c1)c1cccc2ccccc12
[out] > 30 µM

[in] Also check CCC(=O)O[C@]1(C(=O)SCF)[C@H](C)C[C@H]2[C@@H]3C[C@H](F)C4=CC(=O)C=C[C@]4(C)[C@@]3(F)[C@@H](O)C[C@@]21C [FLUTICASONE PROPIONATE]
[out] > 30 µM

[in] Next entry: C[N@+]1(CCF)[C@@H]2CC[C@H]1C[C@@H](OC(=O)C(O)(c1ccccc1)c1ccccc1)C2
[out] > 30 µM

[in] Repeat with C#CCOc1ccc(N)cc1C(=O)NCCCC [PARSALMIDE]
[out] > 30 µM

[in] What do we get for COc1cc(N)c(Cl)cc1C(=O)NC1CCN(Cc2ccccc2)CC1 [CLEBOPRIDE] ?
[out] > 30 µM

[in] Another molecule to look at: C[C@H](Cc1ccc(O)c(O)c1)[C@@H](C)Cc1ccc(O)c(O)c1
[out] > 10 µM

[in] Same again, this time with CCC(COC(=O)c1cc(OC)c(OC)c(OC)c1)(c1ccccc1)N(C)C (centres undefined)
[out] > 30 µM

[in] Follow-up item: Clc1ccc(C(Cn2ccnc2)OCc2ccsc2Cl)c(Cl)c1 (centres undefined)
[out] > 30 µM

[in] Try this molecule too: Clc1ccc2c(N3CCN(CCCN4CCN(c5ccnc6cc(Cl)ccc56)CC4)CC3)ccnc2c1
[out] > 30 µM

[in] Next molecule: COc1ccccc1Oc1c(NS(=O)(=O)c2ccc(C(C)(C)C)cc2)nc(-c2ncccn2)nc1OCCO
[out] > 10 µM

[in] Now the same for CCCN[C@H]1CCc2nc(N)sc2C1 [PRAMIPEXOLE]
[out] > 10 µM

[in] Follow-up item: CCCCCC(=O)O[C@]1(C(C)=O)CC[C@H]2[C@@H]3CCC4=CC(=O)CC[C@]4(C)[C@H]3CC[C@@]21C [HYDROXYPROGESTERONE CAPROATE]
[out] > 30 µM

[in] Same again, this time with COc1cc2nc(N3CCN(C(=O)C4CCCO4)CC3)nc(N)c2cc1OC (centres undefined)
[out] > 10 µM

[in] Consider next the molecule CCN(CC)CCN1C(=O)CN=C(c2ccccc2F)c2cc(Cl)ccc21 in the same way.
[out] > 10 µM

[in] What do you have for Cc1cc(C(C)(C)C)cc(C)c1CC1=NCCN1 ?
[out] > 30 µM

[in] Please give the result for CN(C)CC[C@@H](c1ccc(Cl)cc1)c1ccccn1 too.
[out] > 30 µM

[in] Would you mind doing CCCCC(=O)O[C@]1(C(=O)CO)[C@@H](C)C[C@H]2[C@@H]3CCC4=CC(=O)C=C[C@]4(C)[C@@]3(F)[C@@H](O)C[C@@]21C [BETAMETHASONE VALERATE] as well?
[out] > 10 µM

[in] Similarly, C=C[C@H]1C[N@@]2CC[C@H]1C[C@@H]2[C@@H](O)c1ccnc2ccc(OC)cc12 ?
[out] > 10 µM
